- Tested on: Lemna aequinoctialis
- PROTOCOL: Induction of flowering in Lemna paucicostata 151 after 10 days
- Type: functional, organism-based
The source made the active and inactive calls. The calls are words filed in the database; no cut-off is given here.
Outcome codes: active, inactive

- MOLECULE: "CC/C=C\\C[C@@H]1[C@H](CC(=O)[C@H](O)CCCCCCCC(=O)OC)O[C@]2(O)CC13C(=CC2=O)NC[C@@H]3O"
  CATEGORY LABEL: "active"
- MOLECULE: "CC/C=C\\C[C@@H]1[C@H](CC(=O)[C@H](O)CCCCCCCC(=O)O)O[C@]2(O)CC13C(=CC2=O)N(C)C[C@@H]3O"
  CATEGORY LABEL: "active"
- MOLECULE: "CC/C=C\\C[C@@H]1[C@H](CC(=O)[C@@H](O)CCCCCCCC(=O)O)O[C@]2(O)CC13C(=CC2=O)N(C)C[C@@H]3O"
  CATEGORY LABEL: "active"
- MOLECULE: "CCCCC[C@@H]1[C@H](CC(=O)CCCCCCCCC(=O)O)O[C@]2(O)CC13C(=CC2=O)NC[C@@H]3O"
  CATEGORY LABEL: "inactive"
- MOLECULE: "CC/C=C\\C[C@@H]1[C@H](CC(=O)[C@@H](O)CCCCCCCC(=O)OC)O[C@]2(O)CC13C(=CC2=O)NC[C@@H]3O"
  CATEGORY LABEL: "active"
- MOLECULE: "CC/C=C\\C[C@@H]1[C@H](CC(=O)CCCCCCCCC(=O)O)O[C@]2(O)CC13C(=CC2=O)NC[C@@H]3O"
  CATEGORY LABEL: "active"
- MOLECULE: "CCCCC[C@@H]1[C@H](CC(=O)C(O)CCCCCCCC(=O)O)O[C@]2(O)CC13C(=CC2=O)NC[C@@H]3O (some centres not stated)"
  CATEGORY LABEL: "active"
